biological target: full-length RORγt in Jurkat cells (Homo sapiens); construct: transcriptional activity of the full-length RORγt in Jurkat cells; host or cells: Jurkat cells (ATCC TIB-152); assay: RORγt 5×RORE Assay in Jurkat Cells (Assay 2); type: cell-based; conditions: 5×RORE luciferase reporter, read-out: Avg ROR γt/5x IC50
Sequence (P51449 1-497 isoform P51449-2): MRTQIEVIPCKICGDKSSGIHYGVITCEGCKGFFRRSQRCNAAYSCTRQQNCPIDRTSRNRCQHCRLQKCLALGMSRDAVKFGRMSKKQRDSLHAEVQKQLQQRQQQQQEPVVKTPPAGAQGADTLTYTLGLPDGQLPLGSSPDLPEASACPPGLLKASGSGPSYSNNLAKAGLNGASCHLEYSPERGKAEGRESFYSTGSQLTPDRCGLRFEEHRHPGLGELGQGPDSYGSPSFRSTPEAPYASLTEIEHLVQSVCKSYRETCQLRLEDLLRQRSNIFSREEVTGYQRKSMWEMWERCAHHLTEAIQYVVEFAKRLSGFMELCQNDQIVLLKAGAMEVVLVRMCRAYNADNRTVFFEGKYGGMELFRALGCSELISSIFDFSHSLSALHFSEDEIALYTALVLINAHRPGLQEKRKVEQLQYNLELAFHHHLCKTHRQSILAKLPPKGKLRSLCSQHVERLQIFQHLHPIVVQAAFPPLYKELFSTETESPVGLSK
pIC50: −log10 of the molar value.
compounds and their reported pIC50

* CCS(=O)(=O)c1ccc(CNC(=O)c2ccc3c(c2)CCN(Cc2ccc(C#N)cc2)C3C(C)C)cc1 (racemic) | > 7.00
* CCOC(=O)c1cnc(N2CCc3cc(C(=O)NCc4ccc(S(=O)(=O)CC)cc4)ccc3[C@@H]2C(C)C)nc1C(F)(F)F (single isomer, unassigned) | 6.00 to 7.00
* CCS(=O)(=O)c1ccc([C@@H](CO)NC(=O)c2ccc3c(OC[C@H]4CC[C@H](C(F)(F)F)CC4)nc(C)cc3c2)nc1 (single isomer, unassigned) | 6.00 to 7.00

Task: Find the measured pIC50 of CCC1c2ccc(C(=O)NC(CO)c3ccc(S(=O)(=O)CC)cc3)cc2CCN1CC1CCC(C(F)(F)F)CC1 (single isomer, unassigned) [Hy2A-28.1] and report it.
Result: > 7.00

Task: Find the measured pIC50 of CCS(=O)(=O)c1ccc([C@H](CO)NC(=O)c2ccc3c(OC[C@@H]4CC[C@@H](C(F)(F)F)OC4)nc(C)cc3c2)cc1 (single isomer, unassigned) and report it.
Result: > 7.00

Task: Find the measured pIC50 of CCC1c2ccc(C(=O)NCc3ccc(S(=O)(=O)CC)cc3)cc2CCN1CC1CCC(C(F)(F)F)CC1 (single isomer, unassigned) and report it.
Result: > 7.00

Task: Find the measured pIC50 of CCS(=O)(=O)c1ccc(CNC(=O)c2ccc3c(C4CC4)n(C[C@H]4CC[C@H](C(F)(F)F)CC4)nc3c2)cc1 and report it.
Result: > 7.00
